- protocol.details: chemical genetic growth profiling, strain panel (AID 1159580);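 further: tested at 20 µM; growth read once vehicle control cultures reached saturation at 30 °C; 1 = growth at the plate median or of vehicle wells; lower values mean less growth of the strain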
- condition.notes: S. cerevisiae deletion strains, growth OD, locus YML120C, strain ndi1, hits give low values
Hit rate of the full screen: of about 5,500 compounds, about 2,000 (36%) were called active. Inconclusive results (about 18%) are left out. The list shows a part of the results.
Measured normalized growth accompanies every entry in the list below.
Could you respond with only the numeric value?

These recorded examples may help you get a feel for the data.
Query string: Consider the compound shown here: `Oc1cccc(O)c1` What is its recorded normalized growth?
Result string: 0.986

Query string: Consider the compound shown here: `NC1=NCCN1CC(=O)O` What is its recorded normalized growth?
Result string: 0.998

Query string: Consider the compound shown here: CC(C)c1ccc2c(c1)CCC1[C@](C)(CN)CCC[C@]21C (some centres not stated) What is its recorded normalized growth?
Result string: 0.92

Query string: Consider the compound shown here: CN1CCN(C(=O)OC2c3nccnc3C(=O)N2c2ccc(Cl)cn2)CC1 (configuration not stated) What is its recorded normalized growth?
Result string: 0.985

Query string: Consider the compound shown here: `C[n+]1ccccc1/C=N/O` What is its recorded normalized growth?
Result string: 1.02

***
Query string: Consider the compound shown here: `CCCOc1ccc2nc(NC(=O)OC)[nH]c2c1` What is its recorded normalized growth?
Result string: 1.02

Query string: Consider the compound shown here: `COC(=O)/C(=C1\OC(=O)C(c2ccccc2)=C1O)c1ccccc1` What is its recorded normalized growth?
Result string: 0.985

Query string: Consider the compound shown here: CC(C)CCCC(C)C1CCC2C3C[C@@H](O)[C@@]4(O)C[C@@H](O)CC[C@]4(C)C3CC[C@]12C (some centres not stated) What is its recorded normalized growth?
Result string: 0.996

Query string: Consider the compound shown here: `CN(C)[C@@H]1C(=O)C(C(N)=O)=C(O)[C@@]2(O)C(=O)C3=C(O)c4c(O)ccc(Cl)c4[C@@](C)(O)[C@H]3C[C@@H]12` What is its recorded normalized growth?
Result string: 0.97

Query string: Consider the compound shown here: `CC(C)C[C@@H](CN)CC(=O)O` What is its recorded normalized growth?
Result string: 1.01

Query string: Consider the compound shown here: `CN(C)[C@@H]1C(=O)C(C(=O)NCN2CCCC2)=C(O)[C@@]2(O)C(=O)C3=C(O)c4c(O)cccc4[C@@](C)(O)[C@H]3C[C@@H]12` What is its recorded normalized growth?
Result string: 0.936

Query string: Consider the compound shown here: CC(CCc1ccccc1)NCC(O)c1ccc(O)c(C(N)=O)c1 (configuration not stated) What is its recorded normalized growth?
Result string: 1.01

* * *

- protocol.details: chemical genetic growth profiling, strain panel (AID 1159580)
- condition.notes: S. cerevisiae deletion strains, growth OD, locus YLR320W, strain mms22, hits give low values
Among all 5,500 compounds or so, about 2,000 (36%) were called active. Another 18% or so got no clear call; they are omitted. The list shows a part of the results.
// NB: equality with 1 counts as not fulfilled; only normalized growth strictly below is fulfilled

Use the examples below as a reference point.
Query string: For this compound, is normalized growth lower than 1? `O=C(O)C1=CCCNC1`
Result string: fulfilled

Query string: For this compound, is normalized growth lower than 1? `CN(C)CCCN1c2ccccc2Sc2ccc(Cl)cc21`
Result string: fulfilled

Query string: For this compound, is normalized growth lower than 1? CC(C)CCCC(C)C1CCC2C3=CC[C@H]4C[C@@H](O)CC[C@]4(C)C3CC[C@@]21C (some centres not stated)
Result string: fulfilled

Query string: For this compound, is normalized growth lower than 1? `CCN(CC)CCOC(=O)C1(C2CCCCC2)CCCCC1`
Result string: fulfilled

Query string: For this compound, is normalized growth lower than 1? `C=C1C[C@]23C[C@@]1(O)CC[C@H]2[C@@]12C=C[C@H](O)[C@@](C)(C(=O)O1)[C@H]2[C@@H]3C(=O)O`
Result string: not fulfilled

We now examine a further compound.
Query string: For this compound, is normalized growth lower than 1? `CN(C)[C@@H]1C(=O)C(C(=O)NCN2CCCC2)=C(O)[C@@]2(O)C(=O)C3=C(O)c4c(O)cccc4[C@@](C)(O)[C@H]3C[C@@H]12`
Result string: fulfilled

* * *

Measured normalized growth accompanies every entry in the list below.
- protocol.details: chemical genetic growth profiling, strain panel (AID 1159580)
- condition.notes: S. cerevisiae deletion strains, growth OD, locus YOL147C, strain pex11, hits give low values
Out of some 5,500 compounds screened, about 2,000 (36%) were called active. About 18% were inconclusive and are not listed. The list shows a part of the results.
Could you respond with only the numeric value?

These recorded examples may help you get a feel for the data.
Query string: Consider the molecule shown here: CC(C)(C)NCC(O)c1ccc(O)c(CO)c1 (stereo unspecified) What is its recorded normalized growth?
Result string: 1.02

Query string: Consider the molecule shown here: `C/C1=C/CC(C)(C)/C=C/C/C(C)=C/CC1` What is its recorded normalized growth?
Result string: 1.02

Query string: Consider the molecule shown here: CC(C)CC(NC(=O)OCC1c2ccccc2-c2ccccc21)C(=O)O (stereo unspecified) What is its recorded normalized growth?
Result string: 1.01

Query string: Consider the molecule shown here: C/C1=C\CC(C)(C)/C=C/CC2(C)OC2CC1 (stereo unspecified) What is its recorded normalized growth?
Result string: 1.01

Query string: Consider the molecule shown here: `COC(=O)/C(=C1\OC(=O)C(c2ccccc2)=C1O)c1ccccc1` What is its recorded normalized growth?
Result string: 0.99

Please turn your attention to the following entry.
Query string: Consider the molecule shown here: CC(CCC(=O)O)[C@H]1CCC2C3CC[C@@H]4CC(=O)CC[C@]4(C)C3C=C[C@@]21C (stereo partly specified) What is its recorded normalized growth?
Result string: 1.03

* * *

Measured normalized growth accompanies every entry in the list below.
- protocol.details: chemical genetic growth profiling, strain panel (AID 1159580);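 further: tested at 20 µM; growth read once vehicle control cultures reached saturation at 30 °C; 1 = growth at the plate median or of vehicle wells; lower values mean less growth of the strain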
- condition.notes: S. cerevisiae deletion strains, growth OD, locus YOR070C, strain gyp1, hits give low values
Out of some 5,500 compounds screened, about 2,000 (36%) were called active. About 18% were inconclusive and are not listed. The list shows a part of the results.
Could you respond with only the numeric value?

These recorded examples may help you get a feel for the data.
Query string: Consider the compound shown here: C[C@H](CCC(=O)O)[C@H]1CCC2C3C(=O)CC4CC(=O)CC[C@]4(C)C3CC(=O)[C@@]21C (stereo not given in full) What is its recorded normalized growth?
Result string: 0.995

Query string: Consider the compound shown here: `OC[C@H]1O[C@@](CO)(O[C@@H]2O[C@H](CO)[C@@H](O)[C@H](O)[C@H]2O)[C@@H](O[C@@H]2O[C@H](CO)[C@@H](O)[C@H](O)[C@H]2O)[C@@H]1O` What is its recorded normalized growth?
Result string: 1.01

***
Query string: Consider the compound shown here: CC(CCC(=O)O)[C@H]1CCC2C3CC[C@@H]4C[C@H](O)CC[C@]4(C)C3C=C[C@@]21C (stereo not given in full) What is its recorded normalized growth?
Result string: 0.9

Query string: Consider the compound shown here: `COc1ccc([C@@H]2CC(=O)c3c(O)cc(O[C@@H]4O[C@H](CO[C@H]5O[C@@H](C)[C@H](O)[C@@H](O)[C@H]5O)[C@@H](O)[C@H](O)[C@H]4O)cc3O2)cc1O` What is its recorded normalized growth?
Result string: 1.01

* * *

- protocol.details: chemical genetic growth profiling, strain panel (AID 1159580);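 further: tested at 20 µM; growth read once vehicle control cultures reached saturation at 30 °C; 1 = growth at the plate median or of vehicle wells; lower values mean less growth of the strain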
- condition.notes: S. cerevisiae deletion strains, growth OD, locus YDR001C, strain nth1, hits give low values
Screen size: about 5,500 compounds; about 2,000 (36%) were called active. Inconclusive results (about 18%) are left out. The list shows a part of the results.
Measured normalized growth accompanies every entry in the list below.

Query string: Consider the compound shown here: `C=C1c2c(Cl)ccc(O)c2C(O)=C2C(=O)[C@]3(O)C(O)=C(C(N)=O)C(=O)[C@@H](N(C)C)[C@@H]3[C@@H](O)[C@H]12` What is its recorded normalized growth?
Result string: 0.973 (inactive)

Query string: Consider the compound shown here: `C[C@H]1c2cccc(O)c2C(O)=C2C(=O)[C@]3(O)C(O)=C(C(N)=O)C(=O)[C@@H](N(C)C)[C@@H]3[C@@H](O)[C@@H]21` What is its recorded normalized growth?
Result string: 0.984 (inactive)

Query string: Consider the compound shown here: `CN(C)[C@@H]1C(=O)C(C(N)=O)=C(O)[C@@]2(O)C(=O)C3=C(O)c4c(O)cccc4[C@@](C)(O)[C@H]3[C@H](O)[C@@H]12` What is its recorded normalized growth?
Result string: 1.02 (inactive)

* * *

- protocol.details: chemical genetic growth profiling, strain panel (AID 1159580);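 further: tested at 20 µM; growth read once vehicle control cultures reached saturation at 30 °C; 1 = growth at the plate median or of vehicle wells; lower values mean less growth of the strain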
- condition.notes: S. cerevisiae deletion strains, growth OD, locus YGR078C, strain PAC10
The campaign covered roughly 5,500 compounds. About 2,000 (36%) were called active. Not shown: some 18% with an inconclusive outcome. Rule as the data show it: active = normalized growth mostly below about 0.91 (no sharp cut-off); inconclusive = no clear call, values can overlap the other calls; inactive = mostly above about 0.92. This is one part of the list.
Field 'call' accepts active, inactive

Use the examples below as a reference point.
Query string: Which outcome was assigned to Clc1cncc(Cl)c1N/N=C\C1CC2C=CC1C2 (stereo not drawn) in this test?
Result string: inactive

Query string: Which outcome was assigned to `Cc1cc(=O)n(-c2ccc([N+](=O)[O-])cc2)[nH]1` in this test?
Result string: active

Query string: Which outcome was assigned to CC12CCC3C(CC3(C)C)C(C)(CCC1=O)O2 (stereo not drawn) in this test?
Result string: inactive

***
Query string: Which outcome was assigned to `Cc1cn[nH]c1` in this test?
Result string: inactive

Query string: Which outcome was assigned to `COc1cc(C/C=C/c2ccccc2)c(OC)cc1O` in this test?
Result string: inactive

Query string: Which outcome was assigned to `CS(=O)(=O)c1ccc([C@@H](O)[C@@H](CO)NC(=O)C(Cl)Cl)cc1` in this test?
Result string: inactive

Query string: Which outcome was assigned to COc1ccc(C2Sc3ccccc3N(CCN(C)C)C(=O)C2OC(C)=O)cc1 (stereo not drawn) in this test?
Result string: inactive

Query string: Which outcome was assigned to `O=[N+]([O-])c1ccc(N2CCOCC2)cc1` in this test?
Result string: inactive

Cited source: PubChem BioAssay AID1159580
